# collection of pIC50 values tested on UniProt P23739
# Sequence (P23739 1-1013 limits assumed): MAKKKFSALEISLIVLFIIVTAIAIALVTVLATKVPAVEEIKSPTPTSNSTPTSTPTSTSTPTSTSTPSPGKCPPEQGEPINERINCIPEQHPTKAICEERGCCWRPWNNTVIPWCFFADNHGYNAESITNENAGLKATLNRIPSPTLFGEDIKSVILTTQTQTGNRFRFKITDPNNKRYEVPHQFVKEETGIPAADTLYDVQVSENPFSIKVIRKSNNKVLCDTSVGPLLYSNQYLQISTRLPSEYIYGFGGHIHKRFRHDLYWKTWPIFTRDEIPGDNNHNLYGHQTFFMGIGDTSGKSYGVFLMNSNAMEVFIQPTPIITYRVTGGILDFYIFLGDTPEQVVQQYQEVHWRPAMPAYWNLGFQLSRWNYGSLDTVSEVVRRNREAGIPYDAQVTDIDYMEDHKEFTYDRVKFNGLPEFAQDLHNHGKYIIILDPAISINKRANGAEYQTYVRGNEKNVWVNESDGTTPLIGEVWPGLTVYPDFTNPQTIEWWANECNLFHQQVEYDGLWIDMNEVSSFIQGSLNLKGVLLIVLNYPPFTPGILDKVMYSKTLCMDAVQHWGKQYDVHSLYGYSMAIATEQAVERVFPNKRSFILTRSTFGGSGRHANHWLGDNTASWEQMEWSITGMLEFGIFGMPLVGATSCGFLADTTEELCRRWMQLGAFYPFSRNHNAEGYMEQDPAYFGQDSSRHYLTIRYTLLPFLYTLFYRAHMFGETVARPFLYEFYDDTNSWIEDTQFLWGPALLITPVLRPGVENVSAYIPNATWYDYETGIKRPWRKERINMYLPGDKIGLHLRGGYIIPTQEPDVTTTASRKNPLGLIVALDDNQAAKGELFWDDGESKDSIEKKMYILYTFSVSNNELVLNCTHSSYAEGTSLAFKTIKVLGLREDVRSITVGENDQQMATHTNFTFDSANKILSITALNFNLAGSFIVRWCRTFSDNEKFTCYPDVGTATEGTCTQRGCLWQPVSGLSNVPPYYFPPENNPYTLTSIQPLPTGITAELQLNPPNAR
# Sequence (P23739 1014-1841 limits assumed): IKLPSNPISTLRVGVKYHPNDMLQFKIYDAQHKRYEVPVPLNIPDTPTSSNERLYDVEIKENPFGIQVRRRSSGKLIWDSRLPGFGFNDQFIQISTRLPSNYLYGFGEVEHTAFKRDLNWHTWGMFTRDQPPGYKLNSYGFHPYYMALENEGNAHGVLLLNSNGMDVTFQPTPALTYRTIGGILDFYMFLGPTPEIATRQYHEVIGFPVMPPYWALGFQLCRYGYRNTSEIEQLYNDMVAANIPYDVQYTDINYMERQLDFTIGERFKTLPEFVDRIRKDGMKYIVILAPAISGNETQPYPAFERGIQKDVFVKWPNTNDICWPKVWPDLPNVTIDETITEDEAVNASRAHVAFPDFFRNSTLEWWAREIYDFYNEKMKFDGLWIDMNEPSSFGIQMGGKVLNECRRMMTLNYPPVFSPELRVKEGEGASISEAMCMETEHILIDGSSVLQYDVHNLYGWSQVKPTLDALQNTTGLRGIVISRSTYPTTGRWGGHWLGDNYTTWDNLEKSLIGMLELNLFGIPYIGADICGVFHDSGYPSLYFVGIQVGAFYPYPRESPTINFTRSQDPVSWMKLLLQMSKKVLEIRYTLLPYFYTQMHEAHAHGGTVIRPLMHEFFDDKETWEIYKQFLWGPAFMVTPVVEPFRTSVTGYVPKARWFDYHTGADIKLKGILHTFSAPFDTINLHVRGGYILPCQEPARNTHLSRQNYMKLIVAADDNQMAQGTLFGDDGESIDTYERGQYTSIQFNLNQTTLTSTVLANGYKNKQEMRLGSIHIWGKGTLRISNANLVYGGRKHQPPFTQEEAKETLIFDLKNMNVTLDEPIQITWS
One number for each entry, as −log10 of the molar value.

chemical_structure	pIC50
O[C@H]1[C@H](O)[C@@H](O)CN2C[C@@H](O)[C@@H](O)[C@H]12	5.51

Input line: Find the recorded pIC50 belonging to "O[C@H]1[C@H]2[C@H](O)[C@H](O)CN2[C@H](O)C[C@H]1O" and report it.
Output line: 5.74
